inhibition overview
- assay target: Genome polyprotein (Dengue virus type 2 (strain 16681-PDK53))
- procedure summary: flavivirus cap methylation enzyme inhibition – biochemical, confirmation dose response, primary screen (AID 588689)
- applied conditions: Dengue-2 NS5 methyltransferase capping enzyme assay, at 25 µM, hits give high values
In all, about 340,000 compounds went through this assay and about 1,000 (0.29%) were called active. A selection follows. Results with a measured potency or affinity are listed apart.
Only the number, expressed in %, is required.

// solved cases for inhibition follow
- smiles entry: "COc1ccc(N2C(=O)/C(=C/c3ccc([N+](=O)[O-])cc3)N=C2C)c(OC)c1"
  inhibition [%]: -3.69
- smiles entry: "O=C1NC(=S)N/C1=C/c1cccn1-c1ccc([N+](=O)[O-])cc1"
  inhibition [%]: 0
- smiles entry: "O=C(Nc1cccc(C(F)(F)F)c1)c1ccc2nc(-c3ccco3)c(-c3ccco3)nc2c1"
  inhibition [%]: 21.6
- smiles entry: "CCCNC(=O)c1ccc2nc(-c3ccccc3)c(-c3ccccc3)nc2c1"
  inhibition [%]: -0.8
- smiles entry: "O=C(Nc1ccc(N2CCOCC2)cc1)Nc1ccc2nc(-c3ccco3)c(-c3ccco3)nc2c1"
  inhibition [%]: 13.6

Here is another molecule to look at.
Exercise: What does the record list as inhibition for NC1=C(Cl)C(=O)c2ccccc2C1=O ?
Solution: -5.02

* * *

- assay target: Genome polyprotein (Dengue virus type 2 (strain 16681-PDK53)) (UniProt P29991)
- procedure summary: flavivirus cap methylation enzyme inhibition – biochemical, confirmation dose response, primary screen (AID 588689)
- applied conditions: Dengue-2 NS5 methyltransferase capping enzyme assay, at 25 µM, hits give high values
The whole screen tested about 340,000 compounds, of which about 1,000 (0.29%) were called active. Not all results are given here. Measured potencies and affinities stand elsewhere.
Catalogue of inhibition readings, one per entry.
State the answer as a number, implicitly in %.

Take a look at these entries with their results.
- compound: "CC(C)(C)c1ccc(S(=O)(=O)N2CCN(c3ncccn3)CC2)cc1"
  assay target: "Genome polyprotein (Dengue virus type 2 (strain 16681-PDK53)) (UniProt P29991)"
  measurement unit: "%"
  readout value: -5.15
- compound: "COc1ccc(N(C(=O)Cn2nnc(-c3ccc(Cl)cc3)n2)C(C(=O)NCC2CCCO2)c2ccncc2)cc1 (stereo not given)"
  assay target: "Genome polyprotein (Dengue virus type 2 (strain 16681-PDK53)) (UniProt P29991)"
  measurement unit: "%"
  readout value: -2.22
- compound: "CC1(C)OC1(C#N)c1ccccc1 (stereo not given)"
  assay target: "Genome polyprotein (Dengue virus type 2 (strain 16681-PDK53)) (UniProt P29991)"
  measurement unit: "%"
  readout value: -5.44
- compound: "Cc1cccc(C)c1NC(=O)C(c1ccc([N+](=O)[O-])cc1)N1CCCCC1 (stereo not given)"
  assay target: "Genome polyprotein (Dengue virus type 2 (strain 16681-PDK53)) (UniProt P29991)"
  measurement unit: "%"
  readout value: -3.23
- compound: "Fc1cccc(Cl)c1CN1CCN(c2nc3ccccc3s2)CC1"
  assay target: "Genome polyprotein (Dengue virus type 2 (strain 16681-PDK53)) (UniProt P29991)"
  measurement unit: "%"
  readout value: -4.55

Exercise: Which value of inhibition has been reported for CCn1c(CSc2nnc(-c3ccncc3)n2C)nc2cc(C(=O)O)ccc21 in the records?
Solution: 7.11

Exercise: Request the reported inhibition associated with O=C(/C=C/c1cccc([N+](=O)[O-])c1)OCC(=O)N1CCN(C(=O)c2ccco2)CC1
Solution: 0.39

Exercise: What inhibition value was documented for this compound, COc1ccc(S(=O)(=O)N2CCN(C(=O)CCOc3ccccc3)CC2)cc1OC ?
Solution: 4.1

Exercise: Requested read-out: inhibition. Entry: O=C(CN1C(=O)C2CC=CCC2C1=O)Nc1cc(C(F)(F)F)ccc1N1CCCC1 (stereo not given)
Solution: 4.32

Exercise: Given CCn1c(CSc2nccn2C)nc2cc(C(=O)O)ccc21 , state its recorded inhibition.
Solution: 1.61

* * *

- assay target: Genome polyprotein (Dengue virus type 2 (strain 16681-PDK53))
- procedure summary: flavivirus cap methylation enzyme inhibition – biochemical, confirmation dose response, primary screen (AID 588689)
- applied conditions: Dengue-2 NS5 methyltransferase capping enzyme assay, at 25 µM, hits give high values
The campaign covered roughly 340,000 compounds. About 1,000 (0.29%) were called active. Only a sample is shown. Entries with a potency or affinity are not part of this list.
assay metric: inhibition (%)
The reply should be a number in %, with the unit left off.

// below: answered molecules
- molecule: "CCOc1c(Br)cc(CNc2ccc(N3CCOCC3)cc2)cc1OC"
  measurement unit: "%"
  readout value: 70.4
- molecule: "O=C(CCOc1ccccc1)N1CCCC(Nc2ccccc2)C1 (stereo unspecified)"
  measurement unit: "%"
  readout value: -3.45
- molecule: "O=C1NCCCC2c3c(cc(Br)c(O)c3Br)OC12N1CCCCC1 (stereo unspecified)"
  measurement unit: "%"
  readout value: 10.4
- molecule: "COc1ccc(OC)c(NC(=O)c2cccc(N3C(=O)C4C5CCC(C5)C4C3=O)c2)c1 (stereo unspecified)"
  measurement unit: "%"
  readout value: -6.74
- molecule: "CCCCCC(=O)NNC1=NCC(Cc2cccc(Cl)c2)S1 (stereo unspecified)"
  measurement unit: "%"
  readout value: -9.62
- molecule: "COc1cc(CNc2ccc(S(N)(=O)=O)cc2)ccc1OCc1ccccc1F"
  measurement unit: "%"
  readout value: -6.36
- molecule: "COc1cc(C2CC(=O)c3c(O)cc(O)cc3O2)ccc1O (stereo unspecified)"
  measurement unit: "%"
  readout value: -4.19
- molecule: "COc1cccc(/C=C2\\Oc3cc(OCC(=O)N4CCC[C@H]4C(=O)O)ccc3C2=O)c1"
  measurement unit: "%"
  readout value: 2.17
- molecule: "COc1cc(CNc2ccc(N3CCCC3)cc2)ccc1OCc1ccccc1"
  measurement unit: "%"
  readout value: 12.3
- molecule: "Cc1ccc(S(=O)(=O)Nc2cccc(S(=O)(=O)Nc3ccccc3C(=O)O)c2)c(C)c1"
  measurement unit: "%"
  readout value: 17.5

Exercise: State the recorded inhibition for this entry: CC(/C=C/c1ccco1)=N\NC(=O)COc1ccc(C)c(C)c1
Solution: -10.9

Exercise: So what does the record say about inhibition for O=C(O)c1cccc(-n2sc3ccccc3c2=O)c1 ?
Solution: -2.4

Exercise: Tell me the measured inhibition of COc1c(CC=C(C)C)cc(C2CC(=O)c3c(O)cc(O)cc3O2)cc1CC=C(C)C (stereo unspecified) , please.
Solution: 1.45

Exercise: Quick one: inhibition for OCCC1CN(Cc2cc3c(cc2Cl)OCO3)CCN1Cc1ccccc1 (stereo unspecified) ?
Solution: 1.46

Exercise: For CCN(CC)c1ccc(C(=C2C=CC(=[N+](CC)CC)C=C2)c2ccc(S(=O)(=O)O)cc2S(=O)(=O)[O-])cc1 , what is its reported inhibition?
Solution: 1.48

Exercise: Returns the measured inhibition for the input molecule. Input: CCOc1cc(CNc2ccc(S(N)(=O)=O)cc2)cc(Cl)c1OC
Solution: 3.64

Exercise: Field request: inhibition | item: CCOc1ccc(Nc2nc(C)cc(C)c2C#N)cc1
Solution: 0

Exercise: Item under review: CCOc1c(Cl)cc(CNc2ccc(S(N)(=O)=O)cc2)cc1OC . Reported inhibition?
Solution: -1.46

Exercise: Requested field: inhibition. Item: O=C(CNC(=O)C(c1ccccc1)c1ccccc1)N/N=C\c1ccc(C(=O)O)cc1
Solution: 0

Exercise: Which inhibition reading was recorded for the molecule COc1ccc([C@H]2/C=C\CN(S(=O)(=O)c3ccc(C)cc3)[C@@H](C)C(=O)N2Cc2ccc(F)cc2)cc1 ?
Solution: -6.14

Exercise: // lookup inhibition for CCN(CC)c1ccc(C(=C2C=CC(=[N+](CC)CC)C=C2)c2ccc(N(CC)CC)cc2)cc1
Solution: 17

* * *

- assay target: Genome polyprotein (Dengue virus type 2 (strain 16681-PDK53)) (UniProt P29991)
- procedure summary: flavivirus cap methylation enzyme inhibition – biochemical, confirmation dose response, primary screen (AID 588689)
- applied conditions: Dengue-2 NS5 methyltransferase capping enzyme assay, at 25 µM, hits give high values
Out of some 340,000 compounds screened, about 1,000 (0.29%) were called active. Only a sample is shown. Entries with a potency or affinity are not part of this list.
Reported values of inhibition for individual entries
Supply the numeric figure in %, leaving out any unit text.

In the examples that follow, each entry is paired with its recorded inhibition.
- molecule: "S=C(NCc1ccco1)Nc1ccc(Br)cn1"
  measurement unit: "%"
  inhibition: -6.51
- molecule: "CN(C)C(=O)Cn1cc(S(=O)(=O)Cc2ccccc2)c2ccccc21"
  measurement unit: "%"
  inhibition: -2.66
- molecule: "Cc1ccccc1-n1cnnc1SCC(=O)Nc1cccnc1Cl"
  measurement unit: "%"
  inhibition: 2.99
- molecule: "COc1cccc(-c2nnc(Nc3nc4c(F)cccc4s3)o2)c1"
  measurement unit: "%"
  inhibition: 3.39
- molecule: "Cc1ccccc1NC(=O)NC1(C(=O)N2CCOCC2)CCCCC1"
  measurement unit: "%"
  inhibition: -3.7

Exercise: Lab note: need inhibition for COc1ccc(/C=C2/C(=O)N(c3cccc(F)c3)N=C2C)c(OC)c1 on Genome polyprotein (Dengue virus type 2 (strain 16681-PDK53)) (UniProt P29991), anyone have it?
Solution: 16.7

Exercise: Form entry - test system: Genome polyprotein (Dengue virus type 2 (strain 16681-PDK53)) (UniProt P29991); read-out: inhibition; molecule: Cc1ccc(NC2CCCN(C(=O)c3cn4cc(Cl)ccc4n3)C2)cc1C (configuration not stated)
Solution: 3.88

Exercise: Missing value: inhibition, Genome polyprotein (Dengue virus type 2 (strain 16681-PDK53)) (UniProt P29991), entry CCOC(=O)CC1=NN(c2ccccc2)C(=O)/C1=C\c1ccc(N(C)C)cc1 . Fill in?
Solution: 13.3

Exercise: Value wanted: inhibition (Genome polyprotein (Dengue virus type 2 (strain 16681-PDK53)) (UniProt P29991)) of entry Cc1cc(C)n2nc(SCC(=O)N3CCCCC3C)nc2n1 (configuration not stated)
Solution: 3.69

Exercise: Lab note: need inhibition for CCCC(C)C(=O)Nc1ccc(S(N)(=O)=O)cc1 (configuration not stated) on Genome polyprotein (Dengue virus type 2 (strain 16681-PDK53)) (UniProt P29991), anyone have it?
Solution: -3.64

Exercise: Short answer please: inhibition, Genome polyprotein (Dengue virus type 2 (strain 16681-PDK53)) (UniProt P29991), entry Cc1cccc(N(CC(=O)O)CC(=O)O)c1
Solution: 0.96

Exercise: What reported inhibition corresponds to C=CCNC(=O)COc1c(C)ccc(C)c1C on Genome polyprotein (Dengue virus type 2 (strain 16681-PDK53)) (UniProt P29991)?
Solution: -2.27
